- ASSAY OVERVIEW: Multiple-dose steady-state plasma pharmacokinetics
- Type: in vivo, healthy subjects (human)
- MEASUREMENT SETUP: human, plasma, oral, 2.5 mg
MEASURED PROPERTY: AUC(0-t) (ng·h/mL)
The figure you give is taken to be in ng·h/mL; do not add the unit.

Ask: Dear colleague, I am looking for the recorded AUC(0-t) of the following compound: `COc1ccc(-n2nc(C(N)=O)c3c2C(=O)N(c2ccc(N4CCCCC4=O)cc2)CC3)cc1`
Reply: 527

###

- ASSAY OVERVIEW: Multiple-dose steady-state plasma pharmacokinetics
- Assay type: in vivo, healthy subjects (human)
- MEASUREMENT SETUP: human, plasma, oral
MEASURED PROPERTY: Tmax (h)
The figure you give is taken to be in h; do not add the unit.

Ask: Dear colleague, I am looking for the recorded Tmax of the following molecule: `COc1ccc(-n2nc(C(N)=O)c3c2C(=O)N(c2ccc(N4CCCCC4=O)cc2)CC3)cc1`
Reply: 2
